system: Liver acetone powder from Calf; experiment: Hydrolysis of ketoprofen esters by calf liver acetone powder; format: biochemical; settings: Calf powder, 0.2 millimole ester, procedure of Example 1
PROPERTY_LABEL: EE(%) of R-Acid
Give the value in % but do not write % after it.

Would you please look over these solved cases?
CCOC(=O)C(C)c1cccc(C(=O)c2ccccc2)c1 (stereo not drawn): 39.2
CCCCCCCCOC(=O)C(C)c1cccc(C(=O)c2ccccc2)c1 (stereo not drawn): 24.2

q: Which measured EE(%) of R-Acid value corresponds to CCCCOC(=O)C(C)c1cccc(C(=O)c2ccccc2)c1 (stereo not drawn) ?
a: 38.2

q: Which measured EE(%) of R-Acid value corresponds to CCCOC(=O)C(C)c1cccc(C(=O)c2ccccc2)c1 (stereo not drawn) ?
a: 38.2

q: Which measured EE(%) of R-Acid value corresponds to COC(=O)C(C)c1cccc(C(=O)c2ccccc2)c1 (stereo not drawn) ?
a: 45.6

q: Which measured EE(%) of R-Acid value corresponds to CCCCCCOC(=O)C(C)c1cccc(C(=O)c2ccccc2)c1 (stereo not drawn) ?
a: 42.0
